Measured values drawn from patent US20090012085A1 for this set.

Assay: Phase I dose-escalating study, plasma pharmacokinetics in patients with solid tumor
Assay type: in vivo, human
Conditions: human, plasma, 200 mg, 200 mg QD (4/1), C1D28 (n = 5), plasma; read-out: AUC(0-24), mean (% CV)
Endpoint label: AUC(0-t) (ng·h/mL)
Give bare numbers, in ng·h/mL.

`Cc1[nH]c(/C=C2\C(=O)Nc3ccc(F)cc32)c(C)c1C(=O)NC[C@H](O)CN1CCOCC1` yielded AUC(0-t) of 8210

###

Assay: Phase I dose-escalating study, plasma pharmacokinetics in patients with solid tumor
Assay type: in vivo, human
Conditions: human, plasma, 150 mg, 150 mg QD 4/1 (n = 5), nominal time 4 h; read-out: Mean plasma concentration following the last dose on cycle 1 day 28
Endpoint label: concentration at 4 h (ng/mL)
One number for each entry, in ng/mL.

So for `Cc1[nH]c(/C=C2\C(=O)Nc3ccc(F)cc32)c(C)c1C(=O)NC[C@H](O)CN1CCOCC1` , the logged concentration at 4 h turned out to be 231

###

Test: Phase I dose-escalating study, plasma pharmacokinetics in patients with solid tumor
Format: in vivo, human
Conditions: human, plasma, 200 mg, 200 mg QD (4/1), C1D28 (n = 5), plasma; read-out: C(trough, 24 h), mean (% CV)
Endpoint label: concentration at 24 h (ng/mL)
Answers are plain numbers, in ng/mL.

concentration at 24 h measured on `Cc1[nH]c(/C=C2\C(=O)Nc3ccc(F)cc32)c(C)c1C(=O)NC[C@H](O)CN1CCOCC1` = 259

###

Assay: Phase I dose-escalating study, plasma pharmacokinetics in patients with solid tumor
Assay type: in vivo, human
Details: human, plasma, 100 mg, 100 mg QD 4/1 (n = 6), nominal time 2 h; read-out: Mean plasma concentration following the last dose on cycle 1 day 28
Endpoint label: concentration at 2 h (ng/mL)
One number for each entry, in ng/mL.

Query `Cc1[nH]c(/C=C2\C(=O)Nc3ccc(F)cc32)c(C)c1C(=O)NC[C@H](O)CN1CCOCC1` yields concentration at 2 h of 326

###

Assay: Phase I dose-escalating study, plasma pharmacokinetics in patients with solid tumor
Format: in vivo, human
Conditions: human, plasma, 150 mg, 150 mg QD (4/1), C1D1 (n = 7), plasma; read-out: Cmax, mean (% CV)
Endpoint label: Cmax (ng/mL)
One number for each entry, in ng/mL.

// sample Cc1[nH]c(/C=C2\C(=O)Nc3ccc(F)cc32)c(C)c1C(=O)NC[C@H](O)CN1CCOCC1 [compound 1] , its Cmax was 421

###

Experiment: Phase I dose-escalating study, plasma pharmacokinetics in patients with solid tumor
Type: in vivo, human
Details: human, plasma, 250 mg QD, 250 mg QD 4/1 (n = 6), nominal time 6 h; read-out: Mean plasma concentration following the last dose on cycle 1 day 28
Endpoint label: concentration at 6 h (ng/mL)
One number for each entry, in ng/mL.

Data point: `Cc1[nH]c(/C=C2\C(=O)Nc3ccc(F)cc32)c(C)c1C(=O)NC[C@H](O)CN1CCOCC1` ; concentration at 6 h = 157

###

Experiment: Phase I dose-escalating study, plasma pharmacokinetics in patients with solid tumor
Format: in vivo, human
Conditions: human, plasma, 150 mg, 150 mg QD (4/1), C2D28 (n = 4), plasma; read-out: C(trough, 24 h), mean (% CV)
Endpoint label: concentration at 24 h

`Cc1[nH]c(/C=C2\C(=O)Nc3ccc(F)cc32)c(C)c1C(=O)NC[C@H](O)CN1CCOCC1` has a reported concentration at 24 h of 54.6 ng/mL

###

Experiment: Phase I dose-escalating study, plasma pharmacokinetics in patients with solid tumor
Assay type: in vivo, human
Settings: human, plasma, 25 mg, 25 mg QD (4/1), C1D1 (n = 6), plasma; read-out: AUC(0-24), mean (% CV)
Endpoint label: AUC(0-t) (ng·h/mL)
Answers are plain numbers, in ng·h/mL.

// recorded AUC(0-t) for Cc1[nH]c(/C=C2\C(=O)Nc3ccc(F)cc32)c(C)c1C(=O)NC[C@H](O)CN1CCOCC1 [compound 1] : 547

###

Assay: Phase I dose-escalating study, plasma pharmacokinetics in patients with solid tumor
Type: in vivo, human
Conditions: human, plasma, 200 mg, 200 mg QD (4/1), C1D28 (n = 5), plasma; read-out: t½, mean (% CV) (converted)
Endpoint label: half-life (h)
Numbers only, in h.

Looking up `Cc1[nH]c(/C=C2\C(=O)Nc3ccc(F)cc32)c(C)c1C(=O)NC[C@H](O)CN1CCOCC1` , I found its half-life recorded as 26.9

###

Test: Phase I dose-escalating study, plasma pharmacokinetics in patients with solid tumor
Format: in vivo, human
Settings: human, plasma, 100 mg, 100 mg QD 4/1 (n = 6), nominal time 20 h; read-out: Mean plasma concentration following the last dose on cycle 1 day 28
Endpoint label: concentration at 20 h (ng/mL)
Give bare numbers, in ng/mL.

// sample `Cc1[nH]c(/C=C2\C(=O)Nc3ccc(F)cc32)c(C)c1C(=O)NC[C@H](O)CN1CCOCC1` , its concentration at 20 h was 311

###

Assay: Phase I dose-escalating study, plasma pharmacokinetics in patients with solid tumor
Format: in vivo, human
Settings: human, plasma, 100 mg, 100 mg QD Continuous (n = 4), nominal time 20 h; read-out: Mean plasma concentration following the last dose on cycle 1 day 28
Experimental: Cmax values, or maximum total plasma concentrations, of a compound of formula 1 can be measured according to techniques well known to those skilled in the art. For example, after a compound of formula 1 has been administered to a mammal, blood samples can be taken at fixed time points over a period of time (e.g. 24 hours) and the serum or plasma concentration of compound of formula 1 can be measured using standard analytical techniques known in the art. […]
Endpoint label: concentration at 20 h (ng/mL)
One number for each entry, in ng/mL.

So, Cc1[nH]c(/C=C2\C(=O)Nc3ccc(F)cc32)c(C)c1C(=O)NC[C@H](O)CN1CCOCC1 [compound 1] ? Its concentration at 20 h was 265

###

Experiment: Phase I dose-escalating study, plasma pharmacokinetics in patients with solid tumor
Format: in vivo, human
Settings: human, plasma, 100 mg, 100 mg QD 4/1 (n = 6), nominal time 48 h; read-out: Mean plasma concentration following the last dose on cycle 1 day 28
Endpoint label: concentration at 48 h (ng/mL)
Answers are plain numbers, in ng/mL.

Entry `Cc1[nH]c(/C=C2\C(=O)Nc3ccc(F)cc32)c(C)c1C(=O)NC[C@H](O)CN1CCOCC1` — recorded concentration at 48 h = 60.8

###

Assay: Phase I dose-escalating study, plasma pharmacokinetics in patients with solid tumor
Format: in vivo, human
Settings: human, plasma, 200 mg, 200 mg QD (4/1), C2D28 (n = 5), plasma; read-out: t½, mean (% CV) (converted)
Endpoint label: half-life (h)
One number for each entry, in h.

half-life reported for this molecule `Cc1[nH]c(/C=C2\C(=O)Nc3ccc(F)cc32)c(C)c1C(=O)NC[C@H](O)CN1CCOCC1` : 15.3

###

Test: Phase I dose-escalating study, plasma pharmacokinetics in patients with solid tumor
Type: in vivo, human
Settings: human, plasma, 250 mg QD, 250 mg QD 4/1 (n = 6), nominal time 10 h; read-out: Mean plasma concentration following the last dose on cycle 1 day 28
Endpoint label: concentration at 10 h

Sure, the documented concentration at 10 h for `Cc1[nH]c(/C=C2\C(=O)Nc3ccc(F)cc32)c(C)c1C(=O)NC[C@H](O)CN1CCOCC1` is 141 ng/mL

###

Assay: Phase I dose-escalating study, plasma pharmacokinetics in patients with solid tumor
Format: in vivo, human
Conditions: human, plasma, 150 mg, 150 mg QD Continuous (n = 6), nominal time 1 h; read-out: Mean plasma concentration following the last dose on cycle 1 day 28
Endpoint label: concentration at 1 h (µg/mL)
Numbers only, in µg/mL.

For this compound ( Cc1[nH]c(/C=C2\C(=O)Nc3ccc(F)cc32)c(C)c1C(=O)NC[C@H](O)CN1CCOCC1 [compound 1] ), measured concentration at 1 h is 0.244

###

Experiment: Phase I dose-escalating study, plasma pharmacokinetics in patients with solid tumor
Assay type: in vivo, human
Conditions: human, plasma, oral, 50 mg QD, 50 mg QD 4/1 (n = 5), nominal time 12 h; read-out: Mean plasma concentration following the last dose on cycle 1 day 28
Endpoint label: concentration at 12 h (ng/mL)
Numbers only, in ng/mL.

Reported concentration at 12 h for `Cc1[nH]c(/C=C2\C(=O)Nc3ccc(F)cc32)c(C)c1C(=O)NC[C@H](O)CN1CCOCC1` was 50.4

###

Assay: Phase I dose-escalating study, plasma pharmacokinetics in patients with solid tumor
Assay type: in vivo, human
Settings: human, plasma, 100 mg QD, 100 mg QD 4/1 (n = 6), nominal time 3 h; read-out: Mean plasma concentration following the last dose on cycle 1 day 28
Endpoint label: concentration at 3 h (ng/mL)
Give bare numbers, in ng/mL.

The value of concentration at 3 h measured for the compound `Cc1[nH]c(/C=C2\C(=O)Nc3ccc(F)cc32)c(C)c1C(=O)NC[C@H](O)CN1CCOCC1` turned out to be 337
